- experiment_description: viability loss of HPDE-C7K cells – cell-based, fluorescence, HTS, primary screen (AID 431);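 also: 0% = DMSO solvent wells and 100% = doxorubicin-treated wells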
- conditions: HPDE-C7K KRASV12 cells, Alamar Blue viability, 48 h; at 10 µM; hits give high values
About 1,100 (1.7%) of roughly 63,000 compounds were called active. The sample as a whole holds a higher share of actives than the screen did. Measured potencies and affinities stand elsewhere.
measure_name: cytotoxicity (%)
// note: answer is a bare numeric in %

Below, each entry is followed by its recorded cytotoxicity result.
- compound: "O=c1[nH]c(NCCCO)nc2c1C1(CCCC1)Cc1ccccc1-2"
  unit_text: "%"
  cytotoxicity: 26.4
- compound: "COc1ccc(CCn2c(C)ccc2C)cc1OC"
  unit_text: "%"
  cytotoxicity: -8.8
- compound: "O=C(CCN1CCN(CCC(=O)c2ccccc2)CC1)c1ccccc1"
  unit_text: "%"
  cytotoxicity: -9.4
- compound: "Cn1c(C(=O)NCCc2c[nH]c3ccccc23)cc2sccc21"
  unit_text: "%"
  cytotoxicity: 6.9

Q) Suppose we examine the compound CS(=O)(=O)N(CC(=O)NCc1ccc2c(c1)OCO2)Cc1ccc(Cl)cc1 ; what cytotoxicity value has been reported?
A) -14.6

====

- experiment_description: viability loss of HPDE-C7K cells – cell-based, fluorescence, HTS, primary screen (AID 431);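 also: 0% = DMSO solvent wells and 100% = doxorubicin-treated wells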
- conditions: HPDE-C7K KRASV12 cells, Alamar Blue viability, 48 h; at 10 µM; hits give high values
Among all 63,000 compounds or so, about 1,100 (1.7%) were called active. This is one part of a sample in which actives are shown more often than they occur. Measured potencies and affinities stand elsewhere.
measure_name: cytotoxicity (%)
Expressed in %, but write only the number.

Known cytotoxicity results, listed for orientation:
- molecule: "CC(=O)c1sc(NC(=O)C2(F)C(F)(F)C(F)(F)C(F)(F)C(F)(F)C2(F)F)nc1C"
  reported_measurement: 51
- molecule: "CC(CN1CCOCC1)OC(=O)c1ccc2c(c1)OCCO2 (configuration not stated)"
  reported_measurement: 9.2
- molecule: "Cc1ccc(C2C(C#N)=C(N)Oc3nc(-c4ccccc4)[nH]c32)o1 (configuration not stated)"
  reported_measurement: 0.6
- molecule: "CC1CCN(Cc2ccc(NC(=O)CC3Oc4ccccc4NC3=O)cc2)CC1 (configuration not stated)"
  reported_measurement: 0.1
- molecule: "c1ccc(Nc2nc(N3CCOCC3)nc(N3CCOCC3)n2)cc1"
  reported_measurement: 5

Q) Using the record for CC1CCc2nc(NC(=O)c3ccco3)sc2C1 (configuration not stated) , report its cytotoxicity.
A) -5.4

Q) May I ask what cytotoxicity has been recorded for CSc1nsc(SC)c1NC(=O)OCCc1ccccn1 ?
A) -3.5

Q) Can you look up the measured cytotoxicity of CCCCC(=O)Nc1nc(C)c(C(C)=O)s1 for me?
A) -0.2

Q) Give its cytotoxicity value. Item: COc1ccc(C(=O)OC(C)CN2CCOCC2)cc1OC (configuration not stated)
A) -10

Q) Returns the measured cytotoxicity for the input molecule. Input: O=C(Nc1ccccc1C(=O)N1CCOCC1)c1ccco1
A) 3.4

Q) What value of cytotoxicity has been recorded for this entry: Cc1ccc(SCc2[nH]nc3c2C(c2ccc(C)o2)C(C#N)=C(N)O3)cc1 (configuration not stated)
A) 10.8

Q) Find the recorded cytotoxicity belonging to CC(=O)c1sc(NC(=O)C=C(C)C)nc1C and report it.
A) -0.4

====

Attribute: cytotoxicity
- experiment_description: viability loss of HPDE-C7K cells – cell-based, fluorescence, HTS, primary screen (AID 431);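 also: 0% = DMSO solvent wells and 100% = doxorubicin-treated wells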
- conditions: HPDE-C7K KRASV12 cells, Alamar Blue viability, 48 h; at 10 µM; hits give high values
The campaign covered roughly 63,000 compounds. About 1,100 (1.7%) were called active. What follows is part of a selection rich in actives, with near analogues and random picks from the rest. Measured potencies and affinities stand elsewhere.
Please state the figure in %; there is no need to write the unit.

- compound: "CC(=Nc1ccccc1)Nc1ccccc1"
  cytotoxicity [%]: -3.8

Q) Which cytotoxicity is reported for this compound? CCn1c2c(c3cc(C(=O)O)ccc31)CCCC2=O
A) -19.1

Q) What measured cytotoxicity goes with CC(=O)C1=C(C)NC(C)=C(C(C)=O)C1c1ccc(-c2ccccc2Cl)o1 ?
A) -13

Q) I have this compound here, CCC1(C)Cc2c(sc3nc4n(c(=O)c23)CCS4)CO1 (stereo unspecified) , and I need its recorded cytotoxicity.
A) 20.1

Q) Param item = CCn1c(CNc2nc(-c3ccccc3)cs2)nnc1SCC(=O)NCc1ccco1 ; retrieve measured cytotoxicity.
A) -32.7

Q) I am curious: what cytotoxicity value has been reported for CCOC(=O)C1=C(C)NC2=C(C(=O)c3ccccc32)C1c1cccnc1 (stereo unspecified) ?
A) 12.3

Q) What does the data say about its cytotoxicity? Entry: O=C(NCC1CCCO1)c1csc2c1CCCCC2 (stereo unspecified)
A) -11.1

Q) Query: cytotoxicity; subject: Cc1cc(C)n(-c2nc3nonc3nc2-n2nc(C)cc2C)n1
A) -2.4

Q) Need cytotoxicity of CN(C)S(=O)(=O)c1ccc2c(c1)c(=O)c(C(=O)N1CCN(c3ccccn3)CC1)cn2C , thanks.
A) 5

Q) Report cytotoxicity for Cn1c(SCC(=O)N2CCN(c3ccccc3)CC2)nnc1-c1cc2ccccc2o1 please.
A) 10.4

Q) # get_value(readout='cytotoxicity', item= ONC(=Nc1ccccc1)C(=Nc1ccccc1)NO )
A) -6.3

====

- experiment_description: viability loss of HPDE-C7K cells – cell-based, fluorescence, HTS, primary screen (AID 431);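 also: 0% = DMSO solvent wells and 100% = doxorubicin-treated wells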
- conditions: HPDE-C7K KRASV12 cells, Alamar Blue viability, 48 h; at 10 µM
The campaign covered roughly 63,000 compounds. About 1,100 (1.7%) were called active.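 Rule for the calls: active = compounds whose percent cytotoxicity in the single-dose primary screen, scaled between solvent and toxic-drug controls, exceeds 50; inactive = the rest.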 This excerpt belongs to a sample that is enriched for actives. Measured potencies and affinities stand elsewhere.
Could you please pick one outcome from this set? t (active), f (inactive)

Q) Tell me the recorded outcome of this test for C=CCn1cnc2c(c1=O)c1nc3ccccc3nc1n2-c1ccc(Cl)cc1 .
A) f

Q) I'd appreciate the recorded outcome for COc1ccc(C(=O)CSc2nnc(-c3cc4ccccc4cc3O)n2Cc2ccco2)cc1 from this test.
A) t

Q) Look up the recorded call for C=CCn1cnc2c(c1=O)c1nc3ccccc3nc1n2-c1ccccc1 in this test.
A) f

====

- experiment_description: viability loss of HPDE-C7K cells – cell-based, fluorescence, HTS, primary screen (AID 431);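 also: 0% = DMSO solvent wells and 100% = doxorubicin-treated wells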
- conditions: HPDE-C7K KRASV12 cells, Alamar Blue viability, 48 h; at 10 µM; hits give high values
In all, about 63,000 compounds went through this assay and about 1,100 (1.7%) were called active. The entries come from a sample that favours actives as a whole. Potency and affinity values are given separately.
Note to self: use 1.0 only for cytotoxicity readings below 20%; a reading exactly at 20% still gets 0.0.

Before answering, review these 5 worked examples.
- compound: "O=C(Nc1nnc(-c2cccs2)o1)c1cccc(F)c1"
  assigned_label: 0.0
- compound: "CCN(CC)CCNC(=O)c1c(C)oc2cc(Br)c(OC)cc12"
  assigned_label: 1.0
- compound: "CCOC(=O)c1c(CN2CCCCC2)n(C)c2cc(Br)c(OC)cc12"
  assigned_label: 1.0
- compound: "CC1CC(C)CN(S(=O)(=O)c2ccc(C(=O)Nc3nnc(-c4cccs4)o3)cc2)C1 (stereo unspecified)"
  assigned_label: 0.0
- compound: "CCOC(=O)c1c(C)n(C)c2cc(Br)c(C(=O)OC)cc12"
  assigned_label: 1.0

Lab note: next compound to report on.
Q) Criterion: cytotoxicity strictly below 20%. Is it met by CCC(C)C(=O)Nc1c2c(nc3c1CCC3)CCCC2 (stereo unspecified) ?
A) 1.0

====

- experiment_description: viability loss of HPDE-C7K cells – cell-based, fluorescence, HTS, primary screen (AID 431);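 also: 0% = DMSO solvent wells and 100% = doxorubicin-treated wells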
- conditions: HPDE-C7K KRASV12 cells, Alamar Blue viability, 48 h; at 10 µM; hits give high values
Hit rate of the full screen: of about 63,000 compounds, about 1,100 (1.7%) were called active. The entries come from a sample that favours actives as a whole. Entries with a potency or affinity are not part of this list.
Consider the following compounds and their measured cytotoxicity readings.
Quick note: give the figure in %, leave out the unit.

# example entries with known answers
- compound: "Cc1ccc(NC(=O)CN2C(=O)COc3ccc(C)cc32)nc1"
  unit_text: "%"
  cytotoxicity: 5.6
- compound: "COc1nc(-c2ccccc2)cc(C(F)(F)F)n1"
  unit_text: "%"
  cytotoxicity: -0.7
- compound: "FC(F)(F)c1cc(-c2ccco2)nc(-n2nnc3ccccc32)n1"
  unit_text: "%"
  cytotoxicity: 3.9

Q) Which cytotoxicity is reported for this compound? Nc1nc(-c2ccccc2)cc(C(F)(F)F)n1
A) -1.4

Q) Please look up its cytotoxicity: CCOc1cc2nc(-c3ccc(OC)c(OC)c3)nc(N3CCOCC3)c2cc1OC
A) 74.8

Q) Please give the measured cytotoxicity for this compound: COc1ccc(NC(=O)CSc2nnc(-c3ccncc3)n2CC2CCCO2)c(OC)c1 (configuration not stated)
A) -18.3

Q) Look up cytotoxicity: COc1ccc(-c2cc(C(F)(F)F)nc(NC3CCCC3)n2)cc1OC
A) 8.8

Q) What measured cytotoxicity goes with O=C(NCc1ccncc1)c1c(F)c(F)c(F)c(F)c1F ?
A) -8.2
